System name: EsemOR5 (Eriocrania semipurpurella, UniProt A0A2H4NTA6)
Sequence (A0A2H4NTA6 1-419): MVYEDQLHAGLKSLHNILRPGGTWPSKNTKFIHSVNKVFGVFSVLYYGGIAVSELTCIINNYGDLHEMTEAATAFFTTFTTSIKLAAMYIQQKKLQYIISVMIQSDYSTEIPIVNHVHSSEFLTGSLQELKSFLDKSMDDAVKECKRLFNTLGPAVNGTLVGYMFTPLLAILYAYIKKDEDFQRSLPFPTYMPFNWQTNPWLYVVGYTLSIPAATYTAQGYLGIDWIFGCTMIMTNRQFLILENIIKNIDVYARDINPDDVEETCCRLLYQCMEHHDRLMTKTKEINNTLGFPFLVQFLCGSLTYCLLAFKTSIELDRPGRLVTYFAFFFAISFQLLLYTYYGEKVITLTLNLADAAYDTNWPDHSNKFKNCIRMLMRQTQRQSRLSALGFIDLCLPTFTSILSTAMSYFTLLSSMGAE
Sequence (A0A2H4NT96 1-482 partner): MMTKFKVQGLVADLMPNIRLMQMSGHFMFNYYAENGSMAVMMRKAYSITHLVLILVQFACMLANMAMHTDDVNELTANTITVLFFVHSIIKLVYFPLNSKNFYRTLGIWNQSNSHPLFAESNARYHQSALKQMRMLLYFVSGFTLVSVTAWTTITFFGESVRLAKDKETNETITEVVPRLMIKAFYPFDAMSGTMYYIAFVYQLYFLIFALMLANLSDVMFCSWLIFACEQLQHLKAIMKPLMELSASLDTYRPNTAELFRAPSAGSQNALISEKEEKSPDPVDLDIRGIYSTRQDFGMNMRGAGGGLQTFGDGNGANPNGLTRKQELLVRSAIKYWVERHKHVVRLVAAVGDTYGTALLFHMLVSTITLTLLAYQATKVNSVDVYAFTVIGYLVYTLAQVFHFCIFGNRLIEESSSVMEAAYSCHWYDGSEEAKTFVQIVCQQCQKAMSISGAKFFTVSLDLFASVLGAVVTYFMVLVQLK
Test details: Fluorescent calcium assay, HEK293 cells expressing EsemOrco and EsemOR5
Type: cell-based
Condition label: induced cells, compounds screened at 30 µM
Reported endpoint: Response of EsemOR5-expressing cells in screening

Sample answers from the record:
CCCCCCC(C)O (stereo not drawn) [2-Octanol] = responded
CCCCCCC(C)=O [2-Octanone] = responded
CCCCCCOC(C)=O [Hexyl acetate] = responded
CCCCCCC[C@H](C)O [(S)-Nonan-2-ol] = Weaker responses
CC/C=C\CCOC(C)=O [(Z)-3-Hexenyl acetate] = responded
CCCCCCCC(C)=O [Nonan-2-one] = Weaker responses
CCC/C=C/COC(C)=O [(E)-2-Hexenyl acetate] = responded

Please examine the following record next.
# get_value(readout='Response of EsemOR5-expressing cells in screening', item= CC/C=C\CCC[C@@H](C)O [(2R, 6Z)-6-nonen-2-ol, (2R,6Z)-6-Nonen-2-ol] )
Weaker responses
